Reference source: PubChem BioAssay (NCI)

Tested on: EKVX NSCLC
TEST_METHOD_NOTES: NCI-60 one-dose screen, 48 h (100 = growth as untreated, 0 = no growth, -100 = all killed)
CONDITIONS: 10 µM unless noted
This is part of a sample that, as a whole, favours compounds with a hit. Of some 83,000 tested, about 20% had one in any assay.
Binary classification by growth, with 90% as an inclusive lower bound for Y; all other cases are N.

### Prompt Tell me whether growth is at least 90% here: Cc1cc(Cc2cc(C)cc(C(C)(C)C)c2O)c(O)c(C(C)(C)C)c1
### Response N

### Prompt Item COc1ccc(-n2ncn(CCCCCCn3cnn(-c4ccc(OC)cc4)c3=O)c2=O)cc1 with growth of 90% or above?
### Response N

### Prompt Threshold query (growth >= 90%) on O=C1C2=C(CCN(Cc3ccccc3)C2)N2CCN=C2N1Cc1ccc(F)cc1F
### Response N

### Prompt Answer whether growth of C=C1C(=O)O[C@H]2[C@H]1CC/C(COC(=O)/C=C\C(=O)NCc1ccc(Cn3c(=O)sn(-c4ccc(OC)cc4)c3=O)cc1)=C\CC[C@@]1(C)O[C@@H]21 is greater than or equal to 90%.
### Response N

### Prompt Can N#Cc1cnn2c(-c3ccc(Cl)cc3)nc(NCCc3ccccc3)nc12 be said to have growth at or above 90%?
### Response N

### Prompt I'd appreciate it if you could say whether CCN(CC)CCCC(C)NCc1ccccc1 (stereo not given) has growth at least equal to 90%.
### Response Y

### Prompt Check the entry CC(=O)c1cc2c(o1)C(=O)c1ccccc1C2=O : does growth equal or exceed 90%?
### Response N

### Prompt Is reported growth greater than or equal to 90% here: COc1ccc(/C(C)=C(\c2ccc(Cl)cc2)c2ccc(OCCN3CCCCC3)cc2)cc1F
### Response N

Next:
### Prompt Has COc1cc(-c2cccc([N+](=O)[O-])c2)c(-c2nc(-c3ccccc3)c(-c3ccccc3)n2C2CC2)cc1OC a recorded growth greater than or equal to 90%?
### Response N

### Prompt Hi team, for C=C1c2c(C)nn(-c3ccc(N)cc3)c2N(C)C23CC1C1(C)c4c(C)nn(-c5ccc(N)cc5)c4N(C)C(C)(CC12)C3 (stereo not given) , is the recorded growth at or above 90%?
### Response N

### Prompt Check the entry COc1cccc(/C=C2\COc3ccc(O)cc3C2=O)c1OC : does growth equal or exceed 90%?
### Response Y

### Prompt hey, is growth for this one >= 90%? COc1ccc(Oc2nc(Nc3ccc(N4CCCCC4)nc3)ncc2NC(=O)c2cc(OC)cc(OC)c2)cc1
### Response N

### Prompt Given COc1cc(C(=O)Nc2cc(O)c(CC=C(C)C)c(O)c2)cc2c1O[C@]1(C)CC[C@@H](O)C(C)(C)[C@H]1C2 , state whether its growth is at least 90%.
### Response N

### Prompt Dear colleague, could you confirm whether N=c1ccn2c(n1)OC1C(O)C(CO)OC12 (stereo not given) has growth at or above 90%?
### Response N

### Prompt For this compound, is measured growth 90% or higher? CC(C)c1ccc(C(=O)OC(=O)c2ccc(C(C)C)cc2)cc1
### Response Y

====

Tested on: MDA-MB-435 melanoma
TEST_METHOD_NOTES: NCI-60 one-dose screen, 48 h
CONDITIONS: 10 µM unless noted
The panel holds about 83,000 compounds, 20% with a hit somewhere; the sample as a whole holds those more often. The source made the active and inactive calls. The calls were made as follows: active = growth percent below 10; inactive = the rest.
In this exercise, the only acceptable responses are true (1) = active, false (0) = inactive

Take a look at these entries with their results.
### Prompt For C=C(C)[C@@H]1CC[C@]2(C(=O)NCC(=O)O)CC[C@]3(C)[C@H](CC[C@@H]4[C@@]5(C)Cc6c([nH]c7ccccc67)C(C)(C)[C@@H]5CC[C@]43C)[C@@H]12 , what call appears in the results of this test?
### Response false (0)

### Prompt What was the test verdict on CO[C@H]1/C=C/O[C@@]2(C)Oc3c(C)c(O)c4c(c3C2=O)C(=O)C(/C=N/N(c2ccccc2)c2ccccc2)=C(NC(=O)/C(C)=C\C=C\[C@H](C)[C@H](O)[C@@H](C)[C@@H](O)[C@@H](C)[C@H](OC(C)=O)[C@@H]1C)C4=O ?
### Response true (1)

---
### Prompt Field: outcome | Entry: Cc1c(C)c2c(c(C)c1NC(=O)/C=C\C(=O)O)CCC(C)(CCCC(C)CCCC(C)CCCC(C)C)O2 (stereo not drawn)
### Response false (0)

### Prompt Which outcome did this test record for the molecule Fc1ccc(Nc2ccc3cc(OCCCN4CCOCC4)ccc3n2)cc1F ?
### Response false (0)

### Prompt Lab log entry: Cc1cc(-c2ccccc2)cc(SC#N)[n+]1[O-] — outcome as called in the assay?
### Response false (0)

### Prompt What outcome does the record of this test show for COc1cc(-c2cc(-c3ccc(Nc4nc(Nc5ccccc5)nc(Nc5ccc(Cl)cc5)n4)cc3)nc(N)n2)cc(OC)c1OC ?
### Response false (0)

### Prompt Answer briefly: the call reported for COc1ccc(-c2c(N)n[nH]c2-c2ccccc2O)cc1OC in this assay.
### Response false (0)

### Prompt Which outcome was assigned to COc1ccc(OC)c(Nc2nc3nonc3nc2Nc2cccc(Br)c2)c1 in this test?
### Response false (0)
